- Test system: SK-MEL-28 melanoma
- assay-info: NCI tumour cell line growth inhibition, 48 h
As shown below, each of these compounds has a reported TGI value.
Write the number in µM without appending the unit.

| compound | result-number |
| --- | --- |
| CN(C)CCCn1c(=O)c2ccccc2c2ccccc21 | 46.9 |

Look up TGI of `COc1cc2nc(N3CCCC3)nc(NCCc3ccccc3)c2cc1OC` and report it.
3.03

Look up TGI of CC(=O)c1ccc2c(c1)CC1(C2)Cc2cc3c(cc2C1=O)CCC3 (stereo not given) and report it.
48.8

Look up TGI of `COc1cc2c(cc1OCCCn1c(-c3ccccn3)nc3ccccc31)N=C[C@@H]1CCCN1C2=O` and report it.
11.6

Look up TGI of `O=C1c2c(c3c4ccccc4[nH]c3c3ccc4ccccc4c23)C(=O)N1CCN1CCNCC1` and report it.
3.1

Look up TGI of `CN=c1ccc2nc3ccc(N)cc3sc-2c1` and report it.
24.1

Look up TGI of `CCCCCCCCCCCCCCCCCC1=NCCN1CCOC1=C(Cl)C(=O)c2ccccc2C1=O` and report it.
9.05

Look up TGI of `Cc1cc(S(=O)(=O)/N=C(/N)Nc2ccccc2O)c(SCc2ccccc2)cc1Cl` and report it.
43.9

====

As shown below, each of these compounds has a reported TGI value.
- Tested on: SF-295 CNS
- assay-info: NCI tumour cell line growth inhibition, 48 h

Known results for compounds:
| compound | TGI |
| --- | --- |
| CCCP1(=O)C=C(C)C(=C(Cl)Cl)C(C)=C1 (stereo unspecified) | > 100 µM |
| COC(=O)C1(C)CCc2c(OC)ccc(OC)c2C1=O (stereo unspecified) | > 100 µM |
| O=S(=O)(c1ccc(Cl)cc1)C(Cl)(Cl)Cl | 23 µM |

Look up TGI of CC/C=C\C/C=C\C/C=C\CCCCCCCC(=O)OCC(O)CO (stereo unspecified) and report it.
> 100 µM

Look up TGI of COc1cc2c(cc1C1COc3cc4occc4cc3C1=O)OCO2 (stereo unspecified) and report it.
> 100 µM

Look up TGI of CN(C)c1ccc(C(Cc2ccccc2)C2NC(=S)NC2=O)cc1 (stereo unspecified) and report it.
> 100 µM

====

- Test system: ACHN renal
- assay-info: NCI tumour cell line growth inhibition, 48 h; in the data active means GI50 below about 0.43 µM; inactive means the rest
The reply should be one of these categories: class 1 = active, class 0 = inactive

Some solved cases for reference:
| compound | class |
| --- | --- |
| O=[N+]([O-])c1ccc(C=Cc2ccccc2)cc1.[C-]#[O+].[C-]#[O+].[C-]#[O+].[Cr] | class 0 |
| O=S(=O)(Nc1cc(Sc2cccc3cccnc23)c(O)c2ccccc12)c1ccc(F)cc1 | class 0 |
| CN1CCN(C(=O)c2cc(-c3ccc4ncnc(N5CCc6cc(F)c(Cl)cc65)c4c3)cnc2N)CC1 | class 1 |

Please let me know the test result on file for CCc1ccc2c(c1)N(CCO)C1=C(C(=O)OC1)C2c1cccc(Br)c1 (stereo not given) .
class 0

Please let me know the test result on file for `O=C(O)CN1CCN(CC(=O)O)CC(=O)[O][Hg][O]C(=O)C1` .
class 0

====

- Test system: HCT-116 colon
- assay-info: NCI tumour cell line growth inhibition, 48 h; in the data active = GI50 below about 0.43 µM; inactive = the rest
The reply should be one of these categories: active, inactive

Some solved cases for reference:
| molecule | test-system | class |
| --- | --- | --- |
| Cc1cc(S(=O)(=O)/N=C(/N)Nc2ccccc2O)c(SCc2ccccc2)cc1Cl | HCT-116 colon | inactive |
| CCCCCCCCCCCCCCCCCC[n+]1ccc2c(C)c3c(c(C)c2c1)c1cc(O)ccc1n3CC | HCT-116 colon | inactive |
| O=C1OCC2=C1C(c1ccc(Cl)c(Cl)c1)c1cc3c(cc1N2CCO)OCCO3 (centres undefined) | HCT-116 colon | active |

Read the next record carefully.
Please let me know the test result on file for `O=C(/C=C\c1cccc([N+](=O)[O-])c1)/C=C/c1cccc([N+](=O)[O-])c1` .
active

Hello, the source for this data is PubChem BioAssay (NCI), in case you need it.
